B1: BRF1 (parent)
chain: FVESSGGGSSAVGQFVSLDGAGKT

Variants of: B1
Test: protein stability index of a GFP-peptide fusion (GPS, HEK-293T) (PSI 1-6); higher = more stable;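 note: lentivirally expressed fusions sorted by FACS into six bins by GFP to DsRed ratio, PSI derived from sequencing read proportions per bin multiplied by bin number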
Conditions: c terminus: a fixed tail appended
attribute-measured: protein stability index
Reply with the value as a number alone.

Task item: # lookup: protein stability index of S5P
Reply: 2.01

Task item: Would you mind telling me what protein stability index value was observed for S10H ?
Reply: 1.99

Task item: Which protein stability index is reported for this variant? L18V
Reply: 2.95

Task item: Given G13E , state its recorded protein stability index.
Reply: 2.96

Task item: Record request: protein stability index value, item G6D
Reply: 2.96

Task item: protein stability index for K23S ?
Reply: 2

Task item: Form field: reported protein stability index of A11N
Reply: 2

Task item: For the variant shown here, S10V , give the reported protein stability index.
Reply: 1.96

Task item: Please report the recorded protein stability index for S9M .
Reply: 1.99

Task item: Item G6E has what recorded protein stability index?
Reply: 2.94

Task item: Entry E3D : reported protein stability index = ?
Reply: 1.97

Task item: Suppose we examine the variant D19N ; what protein stability index value has been reported?
Reply: 2.02

Task item: So what's the measured protein stability index for this one? E3H
Reply: 2.01

src = the supplement of paper PMC10567573
